# Tested on: SR leukemia
# procedure-details: NCI tumour cell line growth inhibition, 48 h
Here, each record is paired with measured TGI data.

// worked examples, TGI included
{"compound": "COc1cc(C2SC(N)=Nc3c2c(C)nn3C(=O)c2ccc(Cl)cc2)cc(OC)c1OC (centres undefined)", "system-under-test": "SR leukemia", "TGI": "> 10 µM"}
{"compound": "C/C(=N\\O)c1ccc(Nc2nc3ccccc3c3occc23)cc1", "system-under-test": "SR leukemia", "TGI": "5.07 µM"}
{"compound": "O=C(/C=C/c1ccc(Cl)cc1)/C=C/c1cc2ccccc2[nH]c1=O", "system-under-test": "SR leukemia", "TGI": "8.19 µM"}
{"compound": "N#C/C(=C\\c1ccccc1)c1nc(-c2cc3ccccc3oc2=O)cs1", "system-under-test": "SR leukemia", "TGI": "> 100 µM"}
{"compound": "CC(=O)O[C@H]1CCC2(C)C(=CCC3C2CCC2(C)/C(=N/OC(=O)c4ccc(N(CCCl)CCCl)cc4)CCC32)C1 (some centres undefined)", "system-under-test": "SR leukemia", "TGI": "5.98 µM"}

// query Answer with the recorded TGI of O=c1cc(-c2ccccc2)oc2cc(Oc3nnnn3-c3ccccc3)ccc12 only.
// result > 100 µM

// query Answer with the recorded TGI of Nc1nc(SCCC/C=C/B(O)O)nc2c1ncn2C1OC(COP(=O)(O)O)C(O)C1O (centres undefined) only.
// result > 203 µM
